This collection of values is drawn from patent US6294568A.

- Test system: CaCo-2 cells
- METHOD SUMMARY: Cytostatic Action Test on Various Cells (XTT method)
- Type: cell-based
- CONDITIONS: Homo sapiens, Caco-2, 72 h, read-out: Cytostatic rate (IC50)
TEST READOUT: pIC50
Give only the number. pIC50 is defined as minus log10 of concentration in molar units.

**Query** Query: pIC50; subject: O=c1[nH]cc(F)c(=O)[nH]1 [5-fluorouracil, reference compound]
**Result** 5.48

* * *

As shown below, each of these compounds has a reported COX-1/COX-2 value.
- SYSTEM TESTED: Human COX-2 (Homo sapiens)
- Construct: endogenous in cells; host or cells: heparinised whole blood of a healthy human donor pretreated with aspirin, stimulated with LPS (own knowledge: COX-2 is induced in monocytes)
- Sequence (P35354 18-604): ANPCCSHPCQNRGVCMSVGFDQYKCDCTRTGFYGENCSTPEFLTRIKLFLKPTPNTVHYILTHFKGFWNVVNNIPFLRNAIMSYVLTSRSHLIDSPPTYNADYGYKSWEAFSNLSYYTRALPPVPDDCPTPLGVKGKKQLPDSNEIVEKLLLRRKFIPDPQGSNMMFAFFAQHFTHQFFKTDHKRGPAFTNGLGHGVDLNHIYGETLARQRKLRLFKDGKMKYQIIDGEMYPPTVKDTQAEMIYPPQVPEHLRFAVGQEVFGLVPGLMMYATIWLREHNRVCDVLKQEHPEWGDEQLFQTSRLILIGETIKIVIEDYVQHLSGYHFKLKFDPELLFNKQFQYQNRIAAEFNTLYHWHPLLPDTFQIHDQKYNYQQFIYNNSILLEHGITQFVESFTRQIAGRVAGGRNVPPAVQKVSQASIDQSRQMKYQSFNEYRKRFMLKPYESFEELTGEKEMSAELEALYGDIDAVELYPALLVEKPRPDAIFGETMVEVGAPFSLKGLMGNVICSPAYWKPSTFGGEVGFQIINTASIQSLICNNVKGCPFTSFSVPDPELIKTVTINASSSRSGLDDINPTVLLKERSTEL
- METHOD SUMMARY: Human COX-2 Inhibitory Activity Test (LPS-induced PGE2 in blood)
- Assay type: cell-based
- CONDITIONS: ratio of IC50 COX-1 to COX-2

Guide cases for COX-1/COX-2, answers given:
{"columns": ["COMPOUND", "SYSTEM TESTED", "COX-1/COX-2"],
 "data": [
  ["Cc1cc(C#Cc2ccccc2)c(-c2ccc(S(C)(=O)=O)cc2)[nH]1 [Preparation Example 48]", "Human COX-2 (Homo sapiens)", "> 339"],
  ["COc1ccc(-c2cc(C)[nH]c2-c2ccc(S(C)(=O)=O)cc2)cc1Cl [Preparation Example 28]", "Human COX-2 (Homo sapiens)", "> 323"]
]}

Shifting focus to the compound that follows.
**Query** Query: COX-1/COX-2; subject: Cc1cc(-c2ccc(F)cc2F)c(-c2ccc(S(C)(=O)=O)cc2)[nH]1 [Preparation Example 7]
**Result** 212
